Taken from PubChem BioAssay (NCI).

Tested on: DU-145 prostate
METHOD_NOTES: NCI-60 one-dose screen, 48 h (100 = growth as untreated, 0 = no growth, -100 = all killed)
TEST_CONTEXT: 10 µM unless noted
This is part of a sample that, as a whole, favours compounds with a hit. Of some 83,000 tested, about 20% had one in any assay.
RECORDED_METRIC: growth (%)
Field: numeric (%). Do not append units.

See these solved cases before continuing.
| SMILES_CODE | ASSAYED_TARGET | growth / % |
| --- | --- | --- |
| CCN(CC)c1ccc2c(cc1=O)[C@@H](NC(C)=O)CCc1cc(OC)c(OC)c(OC)c1-2 | DU-145 prostate | -10.2 |
| CC1(C)CC(=O)c2cc3c(N)c(C(=O)Nc4ccc(Cl)cc4)sc3nc2C1 | DU-145 prostate | 103 |

Reported growth for COc1ccc2nc(-c3ccc(-c4noc(-c5ccc(Cl)cc5)n4)cc3)[nH]c2c1 : what is it?
48

###

Tested on: OVCAR-5 ovarian
METHOD_NOTES: NCI-60 one-dose screen, 48 h (100 = growth as untreated, 0 = no growth, -100 = all killed)
TEST_CONTEXT: 10 µM unless noted
Compounds without any hit were thinned out: in the full panel of roughly 83,000, 20% have a hit.
RECORDED_METRIC: growth (%)
Field: numeric (%). Do not append units.

| COMPOUND | ASSAYED_TARGET | UNIT_NAME | growth |
| --- | --- | --- | --- |
| COC(=O)CSc1ccc(Cl)cc1 | OVCAR-5 ovarian | % | 107 |
| CN1CCC2(CC1)N=C(SCC(=O)Nc1cnc3ccccc3c1)C(c1ccc(Br)cc1)=N2 | OVCAR-5 ovarian | % | 67.7 |
| COc1cc(C2C(C#N)=C(N)Oc3cc4c(cc32)OCO4)cc2c1OCO2 (stereo unspecified) | OVCAR-5 ovarian | % | 41.3 |
| COc1ccc(-c2nn(C(=O)NCCN(C)C)cc2-c2ccncc2)cc1Cl | OVCAR-5 ovarian | % | 76.9 |
| CC(C)(C)[Si](C)(C)OC1[C@@H](O[Si](C)(C)C(C)(C)C)[C@@H](CNC(=O)NC(=O)NC(=O)CCl)O[C@H]1n1cnc2c(NC(=O)Nc3ccccc3)ncnc21 (stereo partly specified) | OVCAR-5 ovarian | % | 74.1 |

As a next step, examine the compound that follows.
Reported growth for Oc1c(C(Nc2cccc3ccccc23)c2ccccc2)ccc2cccnc12 (stereo unspecified) : what is it?
49.8

###

System: SK-MEL-28 melanoma
METHOD_NOTES: NCI-60 one-dose screen, 48 h
TEST_CONTEXT: 10 µM unless noted
This is part of a sample that, as a whole, favours compounds with a hit. Of some 83,000 tested, about 20% had one in any assay. Activity calls are given as the source filed them. The calls were made as follows: active = growth percent below 10; inactive = the rest.
Valid outcomes are listed here; reply with one: Yes for active, No for inactive

These recorded examples may help you get a feel for the data.
| COMPOUND | GROUP_LABEL |
| --- | --- |
| CC(NC(=O)c1ccccc1)C(=O)Nc1ccccc1 (centres undefined) | No |
| CC(C)(C)OC[C@@H]1N=C(c2ccc(Br)cc2)Nc2nc3ccccn3c2C1=O | No |
| CC(C)N(C(=S)SSC(=S)N(C(C)C)C(C)C)C(C)C | No |

// outcome(item) with item = C=C1C(=O)O[C@H]2[C@H]1CC/C(COC(=O)NCc1ccc(Cn3c(=O)sn(CCCl)c3=O)cc1)=C\CC[C@@]1(C)O[C@@H]21
No

// outcome(item) with item = CCOc1cc(/C=N\NC(=O)C[N+](C)(C)C)ccc1O
No

// outcome(item) with item = O=C(c1ccccc1)c1cccc(C(Br)Br)c1
No

// outcome(item) with item = CCCCCc1c(C)[nH]c(/C=C2\N=C(c3ccc[nH]3)C=C2Oc2ccc(OC)cc2)c1C
Yes

// outcome(item) with item = O=C(Nc1cccc(Cl)c1)Nc1ccccc1Cl
No

// outcome(item) with item = CCCCCCCCN=C(NCCCCCCCC)SCc1cccc2ccccc12
Yes

// outcome(item) with item = CCN(CC)CCCC(C)Nc1ccnc2ccc(Oc3ccccc3)cc12 (centres undefined)
Yes

// outcome(item) with item = CCCCCCCCCCCCCCCC1=NCCN1
No

// outcome(item) with item = O=S(=O)(Nc1ccc2ccccc2c1)N1CCCCC1
No

// outcome(item) with item = CC(C)c1cccc(C#N)c1
No

// outcome(item) with item = O=C(O)CSc1ccc(NCc2oc(CO)cc(=O)c2O)cc1
No
